- Assayed target: RSV postfusion F (postF), F deltaFP (respiratory syncytial virus, UniProt P03420 26-513)
- Experiment notes: BLI, IgG on sensor, 100 nM antigen

Binder	Kd (nM)
ADI-41436 (antibody, V domains shown, IgG1; also called Ab 720) VH: EVQLLESGGGVVQPGRSLRLSCAASGFTFSDYAMHWVRQAPGKGLEWVALISFDGSNEYYADSVKGRFTISRDNSRNTVYLQVNTLRPDDTAVFYCARDSHLRLTTRGWGSFDYWGQGTLVTVSS VL: NFMLTQPHSVSESPGKTVTIACTRSSGSIARNYVQWYQQRPGRSPTMVIYEDNQRPSGVPDRFSGSIDTSSNSASLTISGLKTEDEADYYCQPYDPDNLVFGGGTKLTVL	0.237
ADI-41407 (antibody, V domains shown, IgG1) VH: EVQLVESGGGLVQPGGSLRLSCAASGFTFSSNAMSWVRQAPGKGLEWVSYISGGSATKSYADSVKGRFTISRDNSKNTLYLQMKSLRAEDTAVYYCVGGSAYYSGFDYWGQGTLVTVSS VL: DIVMTQSPSSLSASVGDRVTISCRASQDIRNYLAWYQQKPGKVPNLLIYAASTLESGVPSRFSGSGYGTDFTLTISGLQPEDVATYYCQKYDSAPPFTFGPGTKVDIK	0.371
ADI-41384 (antibody, V domains shown, IgG1; also called Ab 680) VH: QVQLVQSGAEVKKPGSSVRVSCKASGGTFSRYAISWVRQAPGQGLEWMGGVIPRFDKTNYAQKFQGRVMITADKSTSTAYMELSSLRSDDTAVYYCAGDRLDTKITHTWYGFGDFWGQGTTVTVSS VL: EIVLTQSPGTLSLSPGERATLSCRASQSVTSNFLAWYQQRPGQAPRLLIYGASVRAIDIPDRFSGSGSGTDFTLTISRLEPEDFAVYYCQQYGDPFRTFGQGTKVEIK	0.563
